Cited source: ChEMBL document CHEMBL1201862

# maps each entry to its GI50
# Test system: SF-268
# Experiment Notes: NCI tumour cell line growth inhibition, 48 h
Calls of active or inactive are those of the source. Rule as the data show it: active = GI50 up to about 1.1 µM and inactive = higher.
Value Kind: GI50

>>> observed_value("COC(=O)CNC(=O)c1cc(C)cc2c1Oc1c(cc(C)cc1C(=O)NCC(=O)OC)S2")
"99.8 µM (inactive)"
>>> observed_value("C=CCN1C(=O)C/C(=C2/CCC(=O)N2CC=C)C1=O")
"> 100 µM (inactive)"
>>> observed_value("CC1=NN(c2cccc(Cl)c2)C2(C1=Cc1ccc(N(C)C)cc1)C(Cl)C(=O)N2c1nc2ccccc2s1 (stereo not drawn)")
"20.3 µM (inactive)"
>>> observed_value("O=C1c2c(F)c(F)c(F)c(F)c2SC2=NCCN12")
"12.8 µM (inactive)"
>>> observed_value("N#CC(C(=O)/C(=N\\Nc1nc(S)nn1N)C(C#N)c1ccc(Cl)cc1)c1ccc(Cl)cc1 (stereo not drawn)")
"> 100 µM (inactive)"
>>> observed_value("CNc1ncnc2c1cnn2COCC(O)CO (stereo not drawn)")
"> 100 µM (inactive)"
>>> observed_value("Cc1cnc2sn(-c3ccc([N+](=O)[O-])cc3)c(=O)c2c1")
"54.1 µM (inactive)"
>>> observed_value("Cc1cccc(-c2cc(O)c3cccnc3n2)c1")
"59 µM (inactive)"
>>> observed_value("c1cc(-c2ccc(-c3ccc(-c4ccc(-c5ccncc5)o4)cc3)o2)ccn1")
"20.7 µM (inactive)"
>>> observed_value("O=C(NC12CC3CC(CC(C3)C1)C2)n1cnc2cncnc21")
"53.5 µM (inactive)"
>>> observed_value("COCC(=O)CP(=O)(OC)OC")
"> 100 µM (inactive)"
>>> observed_value("O=C(O)c1ccccc1CC1Cc2ccccc2C1")
"> 100 µM (inactive)"
>>> observed_value("O=C1NN(c2ccccc2)C(=O)C2C3c4ccccc4C(c4ccccc43)C12 (stereo not drawn)")
"> 100 µM (inactive)"
>>> observed_value("COc1cccc2[s+]snc12")
"34.1 µM (inactive)"
>>> observed_value("Cc1c2cc[n+](CCN3CCCCC3)cc2c(C)c2c1[nH]c1ccc(O)cc12")
"1.4 µM (inactive)"
>>> observed_value("Cn1c(-c2cccs2)cc(-c2cccs2)c1-c1ccco1")
"> 66.4 µM (inactive)"
>>> observed_value("CCOC(=O)c1c(SCCN2CCCC2)n(-c2ccccc2)c(=S)n(-c2ccccc2)c1=O")
"4.85 µM (inactive)"
>>> observed_value("CC(=O)OC1CC2(c3ccccc3)C(=O)c3ccccc3N2O1 (stereo not drawn)")
"> 100 µM (inactive)"
>>> observed_value("CNc1nc2c(C)ccc3nc(N(C)C)[nH]c3c-2n1")
"32.4 µM (inactive)"
>>> observed_value("Cc1cc(C)nc(NS(=O)(=O)c2ccc(NNc3c4ccccc4nc4c(C(=O)Nc5ccc(S(=O)(=O)Nc6cc(C)on6)cc5)cccc34)cc2)n1")
"27.4 µM (inactive)"
>>> observed_value("[N-]=[N+]=NC1CC(n2ccc(N)nc2=O)OC1COP(=O)(O)OP(=O)(O)OP(=O)(O)O (stereo not drawn)")
"> 100 µM (inactive)"
>>> observed_value("CC1=CC(=O)NP(=O)(Oc2ccc(Cl)cc2)N1 (stereo not drawn)")
"> 100 µM (inactive)"
>>> observed_value("CCOC(=O)c1sc(=S)n(-c2ccc(Cl)cc2)c1-n1cc(-c2ccccc2)c(C#N)c1N")
"2.72 µM (inactive)"
